SYSTEM_UNDER_TEST: T1, human TMEM106B (human, UniProt Q9NUM4 2-274)
T1 construct: full-length, transiently expressed on HEK293 cells, or natively expressed on HeLa, U251 and A549 cells (the cell is named under assay); also the source of the Pepscan peptides; also called huTMEM106B; huTMEM
PROCEDURE_DETAILS: FACS HeLa
I'd be grateful if you could share measured MFI for these entries.

Study these solved cases before continuing.
1. TM-12 (antibody, V domains shown) VH: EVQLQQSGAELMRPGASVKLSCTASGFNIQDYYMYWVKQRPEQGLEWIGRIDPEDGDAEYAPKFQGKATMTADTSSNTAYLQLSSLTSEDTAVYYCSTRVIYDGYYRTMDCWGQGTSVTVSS VL: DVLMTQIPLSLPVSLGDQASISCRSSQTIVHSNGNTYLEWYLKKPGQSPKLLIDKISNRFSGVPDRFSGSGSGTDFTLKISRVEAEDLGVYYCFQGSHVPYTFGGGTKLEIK
2660 MFI
2. TM-48 (antibody, V domains shown) VH: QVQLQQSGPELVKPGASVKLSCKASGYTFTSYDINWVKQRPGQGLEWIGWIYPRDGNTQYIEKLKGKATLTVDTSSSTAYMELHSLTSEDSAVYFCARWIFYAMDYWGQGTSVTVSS VL: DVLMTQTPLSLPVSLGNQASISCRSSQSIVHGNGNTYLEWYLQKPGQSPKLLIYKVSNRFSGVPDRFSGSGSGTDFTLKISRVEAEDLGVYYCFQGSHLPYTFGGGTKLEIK
219 MFI

Attention now turns to another entry.
State its MFI: TM-31 (antibody, V domains shown, mouse IgG (hybridoma)) VH: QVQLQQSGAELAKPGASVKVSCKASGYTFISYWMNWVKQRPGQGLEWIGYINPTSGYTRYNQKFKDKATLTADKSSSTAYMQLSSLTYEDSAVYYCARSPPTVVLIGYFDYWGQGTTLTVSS VL: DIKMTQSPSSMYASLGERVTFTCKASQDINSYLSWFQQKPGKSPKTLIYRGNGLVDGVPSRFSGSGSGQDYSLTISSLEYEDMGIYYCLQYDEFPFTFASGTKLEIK 799 MFI
